Test system: LNCaP
METHOD_NOTES: Cytotoxicity against human LNCaP cells assessed as reduction in cell growth incubated for 24 hrs by MTT assay
Type: functional, cell-based
pIC50: −log10 of the molar value.
ENDPOINT_LABEL: pIC50

SMILES_NOTATION	MEASURED_ON	ASSAY_RESULT
COc1ccc(CCc2cc(OC)c(OC)c(OC)c2)cc1O	LNCaP	7.47

###

System: HeLa
METHOD_NOTES: Antiproliferative activity against human HeLa cells assessed as reduction in cell viability incubated for 48 hrs by MTT assay
Type: functional, cell-based

SMILES_NOTATION	IC50 [µM]
COc1ccc(CCc2cc(OC)c(OC)c(OC)c2)cc1O	8.3

###

METHOD_NOTES: Half life in rat at 25 mg/kg, iv
Assay type: ADME, organism-based
REPORTED_CONDITIONS: in vivo

SMILES_NOTATION	half-life
COc1ccc(CCc2cc(OC)c(OC)c(OC)c2)cc1O	3.66 h

###

Tested on: MDA-MB-468
METHOD_NOTES: Antiproliferative activity against human MDA-MB-468 cells assessed as reduction in cell viability incubated for 72 hrs by MTT assay
Format: functional, cell-based
REPORTED_CONDITIONS: MDA-MB-468, 72 h

SMILES_NOTATION	MEASURED_ON	UNITS	IC50
COc1ccc(CCc2cc(OC)c(OC)c(OC)c2)cc1O	MDA-MB-468	nM	40
